# Test system: THRa:RXRa (NR concentration 90 nM, RXRa partner concentration 90 nM)
# Experiment Summary: PBM binding z-score (relative to random genomic background probes); higher = stronger binding; sequences stand for … in GC…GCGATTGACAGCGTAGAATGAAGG
Task for the reader: assign each of the following sequences its reported PBM binding z-score.
I'd appreciate a reply containing only the number, no unit.

In: Name the recorded PBM binding z-score for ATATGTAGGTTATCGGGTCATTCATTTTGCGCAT .
Out: 3.53

In: Name the recorded PBM binding z-score for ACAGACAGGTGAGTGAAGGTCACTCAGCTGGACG .
Out: 3.41

In: Name the recorded PBM binding z-score for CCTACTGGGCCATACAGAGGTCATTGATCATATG .
Out: 3.15

In: Name the recorded PBM binding z-score for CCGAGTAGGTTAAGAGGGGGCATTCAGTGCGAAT .
Out: 3.73

In: Name the recorded PBM binding z-score for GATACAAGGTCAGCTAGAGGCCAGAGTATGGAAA .
Out: 3.44

In: Name the recorded PBM binding z-score for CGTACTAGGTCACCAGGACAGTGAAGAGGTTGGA .
Out: 3.22

In: Name the recorded PBM binding z-score for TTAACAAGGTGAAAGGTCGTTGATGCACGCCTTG .
Out: 3.51

In: Name the recorded PBM binding z-score for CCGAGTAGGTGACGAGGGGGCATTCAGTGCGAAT .
Out: 3.34

In: Name the recorded PBM binding z-score for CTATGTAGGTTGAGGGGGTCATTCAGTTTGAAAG .
Out: 4.05

In: Name the recorded PBM binding z-score for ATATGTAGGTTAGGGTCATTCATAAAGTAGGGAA .
Out: 4.21

In: Name the recorded PBM binding z-score for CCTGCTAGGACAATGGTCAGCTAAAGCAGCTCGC .
Out: 0.0505

In: Name the recorded PBM binding z-score for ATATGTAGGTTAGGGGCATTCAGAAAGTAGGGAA .
Out: 1.73

In: Name the recorded PBM binding z-score for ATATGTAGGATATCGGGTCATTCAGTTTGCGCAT .
Out: 3.15

In: Name the recorded PBM binding z-score for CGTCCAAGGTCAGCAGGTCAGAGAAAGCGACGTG .
Out: 3.92

In: Name the recorded PBM binding z-score for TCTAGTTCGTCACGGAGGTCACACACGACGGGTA .
Out: 3.67

In: Name the recorded PBM binding z-score for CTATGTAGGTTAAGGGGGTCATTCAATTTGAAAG .
Out: 3.97

In: Name the recorded PBM binding z-score for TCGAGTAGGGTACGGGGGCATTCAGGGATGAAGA .
Out: 4.02

In: Name the recorded PBM binding z-score for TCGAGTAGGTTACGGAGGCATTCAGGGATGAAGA .
Out: 1.1

In: Name the recorded PBM binding z-score for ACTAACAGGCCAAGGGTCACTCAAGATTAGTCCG .
Out: 2.9

In: Name the recorded PBM binding z-score for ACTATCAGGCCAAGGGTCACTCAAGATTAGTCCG .
Out: 3.35

In: Name the recorded PBM binding z-score for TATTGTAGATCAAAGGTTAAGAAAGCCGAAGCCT .
Out: 1.37

In: Name the recorded PBM binding z-score for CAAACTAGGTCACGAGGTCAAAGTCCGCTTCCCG .
Out: 4.76

In: Name the recorded PBM binding z-score for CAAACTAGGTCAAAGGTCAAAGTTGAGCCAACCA .
Out: 4.95

In: Name the recorded PBM binding z-score for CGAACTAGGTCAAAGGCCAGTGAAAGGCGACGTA .
Out: 2.42

In: Name the recorded PBM binding z-score for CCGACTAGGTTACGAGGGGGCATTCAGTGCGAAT .
Out: 3.52

In: Name the recorded PBM binding z-score for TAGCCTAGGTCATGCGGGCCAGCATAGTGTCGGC .
Out: 3

====

# System: THRa:RXRa (NR concentration 90 nM, RXRa partner concentration 90 nM)
# Experiment Summary: PBM binding z-score (relative to random genomic background probes); higher = stronger binding; sequences stand for … in GC…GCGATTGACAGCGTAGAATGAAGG
Measured Parameter: PBM binding z-score
I'd appreciate a reply containing only the number, no unit.

In: Kindly state the measured PBM binding z-score obtained for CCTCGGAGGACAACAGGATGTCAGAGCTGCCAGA with THRa:RXRa (NR concentration 90 nM, RXRa partner concentration 90 nM).
Out: 0.449

In: Kindly state the measured PBM binding z-score obtained for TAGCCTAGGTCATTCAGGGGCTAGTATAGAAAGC with THRa:RXRa (NR concentration 90 nM, RXRa partner concentration 90 nM).
Out: 3.74

In: Kindly state the measured PBM binding z-score obtained for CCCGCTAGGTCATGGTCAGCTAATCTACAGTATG with THRa:RXRa (NR concentration 90 nM, RXRa partner concentration 90 nM).
Out: 3.21

In: Kindly state the measured PBM binding z-score obtained for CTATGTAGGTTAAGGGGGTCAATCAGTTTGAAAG with THRa:RXRa (NR concentration 90 nM, RXRa partner concentration 90 nM).
Out: 3.81

In: Kindly state the measured PBM binding z-score obtained for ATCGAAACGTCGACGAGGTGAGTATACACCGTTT with THRa:RXRa (NR concentration 90 nM, RXRa partner concentration 90 nM).
Out: 1.1

In: Kindly state the measured PBM binding z-score obtained for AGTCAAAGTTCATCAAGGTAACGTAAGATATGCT with THRa:RXRa (NR concentration 90 nM, RXRa partner concentration 90 nM).
Out: 3.8

====

Task for the reader: assign each of the following sequences its reported PBM binding z-score.
# Tested on: PPARg homodimer (NR concentration 180 nM)
# Experiment Summary: PBM binding z-score (relative to random genomic background probes); higher = stronger binding; sequences stand for … in GC…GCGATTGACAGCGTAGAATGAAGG
I'd appreciate a reply containing only the number, no unit.

In: Name the recorded PBM binding z-score for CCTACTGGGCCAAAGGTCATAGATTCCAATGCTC .
Out: 4.53

In: Name the recorded PBM binding z-score for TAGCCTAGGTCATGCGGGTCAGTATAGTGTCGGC .
Out: 1.03

In: Name the recorded PBM binding z-score for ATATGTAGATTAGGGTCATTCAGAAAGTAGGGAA .
Out: 2.2

In: Name the recorded PBM binding z-score for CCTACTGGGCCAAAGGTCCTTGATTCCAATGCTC .
Out: 0.826

In: Name the recorded PBM binding z-score for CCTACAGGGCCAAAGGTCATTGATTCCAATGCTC .
Out: 5.51

In: Name the recorded PBM binding z-score for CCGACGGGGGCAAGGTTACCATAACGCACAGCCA .
Out: 1.9

In: Name the recorded PBM binding z-score for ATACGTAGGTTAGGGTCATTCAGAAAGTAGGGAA .
Out: 3.09

In: Name the recorded PBM binding z-score for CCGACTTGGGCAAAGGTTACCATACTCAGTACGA .
Out: 0.915

In: Name the recorded PBM binding z-score for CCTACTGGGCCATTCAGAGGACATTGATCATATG .
Out: -0.295

In: Name the recorded PBM binding z-score for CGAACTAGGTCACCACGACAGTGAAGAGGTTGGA .
Out: 2.32

In: Name the recorded PBM binding z-score for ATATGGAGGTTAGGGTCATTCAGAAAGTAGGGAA .
Out: 2.92

In: Name the recorded PBM binding z-score for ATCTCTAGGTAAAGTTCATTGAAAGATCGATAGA .
Out: 2.58

In: Name the recorded PBM binding z-score for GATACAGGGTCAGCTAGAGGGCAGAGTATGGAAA .
Out: 4.2

In: Name the recorded PBM binding z-score for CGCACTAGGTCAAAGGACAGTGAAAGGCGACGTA .
Out: 0.993

In: Name the recorded PBM binding z-score for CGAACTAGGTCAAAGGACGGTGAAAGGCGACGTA .
Out: 1.81

In: Name the recorded PBM binding z-score for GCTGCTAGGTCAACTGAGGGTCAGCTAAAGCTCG .
Out: 4.56

In: Name the recorded PBM binding z-score for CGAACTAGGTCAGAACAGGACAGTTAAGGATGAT .
Out: 1.49

In: Name the recorded PBM binding z-score for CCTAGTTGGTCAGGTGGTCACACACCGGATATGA .
Out: 1.26

In: Name the recorded PBM binding z-score for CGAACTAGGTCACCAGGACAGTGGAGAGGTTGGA .
Out: 2.37

In: Name the recorded PBM binding z-score for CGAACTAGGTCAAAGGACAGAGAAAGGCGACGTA .
Out: 1.87

In: Name the recorded PBM binding z-score for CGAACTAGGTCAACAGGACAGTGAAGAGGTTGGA .
Out: 1.93

In: Name the recorded PBM binding z-score for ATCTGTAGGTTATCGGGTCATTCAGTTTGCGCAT .
Out: 2.43

In: Name the recorded PBM binding z-score for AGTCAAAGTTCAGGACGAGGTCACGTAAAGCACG .
Out: 5.05

In: Name the recorded PBM binding z-score for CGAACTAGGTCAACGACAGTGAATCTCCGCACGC .
Out: 2.87

In: Name the recorded PBM binding z-score for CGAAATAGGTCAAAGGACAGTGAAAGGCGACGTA .
Out: 2.41

In: Name the recorded PBM binding z-score for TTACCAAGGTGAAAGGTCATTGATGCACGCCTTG .
Out: 5.67

In: Name the recorded PBM binding z-score for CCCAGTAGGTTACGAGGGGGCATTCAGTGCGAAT .
Out: 1.71

In: Name the recorded PBM binding z-score for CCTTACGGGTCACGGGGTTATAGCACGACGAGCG .
Out: 8.52

In: Name the recorded PBM binding z-score for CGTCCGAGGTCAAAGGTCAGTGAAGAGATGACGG .
Out: 5.95

In: Name the recorded PBM binding z-score for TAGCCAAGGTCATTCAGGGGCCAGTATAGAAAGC .
Out: 3.14

In: Name the recorded PBM binding z-score for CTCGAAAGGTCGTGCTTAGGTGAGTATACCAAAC .
Out: 2.19

In: Name the recorded PBM binding z-score for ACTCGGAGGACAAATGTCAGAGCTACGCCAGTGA .
Out: -0.0876

In: Name the recorded PBM binding z-score for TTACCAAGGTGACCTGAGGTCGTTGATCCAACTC .
Out: 1.47

In: Name the recorded PBM binding z-score for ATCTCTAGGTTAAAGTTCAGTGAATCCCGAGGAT .
Out: 2.11

In: Name the recorded PBM binding z-score for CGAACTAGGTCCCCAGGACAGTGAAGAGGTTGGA .
Out: -0.774

In: Name the recorded PBM binding z-score for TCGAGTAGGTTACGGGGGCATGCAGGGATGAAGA .
Out: 1.59

In: Name the recorded PBM binding z-score for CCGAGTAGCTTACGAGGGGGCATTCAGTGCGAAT .
Out: 0.745

In: Name the recorded PBM binding z-score for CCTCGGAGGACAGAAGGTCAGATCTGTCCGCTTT .
Out: 1.35

In: Name the recorded PBM binding z-score for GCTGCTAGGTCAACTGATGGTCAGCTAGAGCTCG .
Out: 0.71

In: Name the recorded PBM binding z-score for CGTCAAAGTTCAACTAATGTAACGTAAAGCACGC .
Out: 3.42

In: Name the recorded PBM binding z-score for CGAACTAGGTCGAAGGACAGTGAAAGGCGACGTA .
Out: 0.0184

In: Name the recorded PBM binding z-score for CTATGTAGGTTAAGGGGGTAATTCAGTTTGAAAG .
Out: 2.67

In: Name the recorded PBM binding z-score for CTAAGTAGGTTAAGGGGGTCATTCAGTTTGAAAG .
Out: 3.59

In: Name the recorded PBM binding z-score for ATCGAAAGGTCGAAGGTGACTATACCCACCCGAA .
Out: 2.37

In: Name the recorded PBM binding z-score for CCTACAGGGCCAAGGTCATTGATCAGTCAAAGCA .
Out: 1.8

In: Name the recorded PBM binding z-score for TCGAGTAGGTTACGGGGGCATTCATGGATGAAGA .
Out: 1.86

In: Name the recorded PBM binding z-score for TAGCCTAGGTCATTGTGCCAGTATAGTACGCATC .
Out: 0.97

In: Name the recorded PBM binding z-score for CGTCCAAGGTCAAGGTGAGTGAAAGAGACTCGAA .
Out: 3.6

In: Name the recorded PBM binding z-score for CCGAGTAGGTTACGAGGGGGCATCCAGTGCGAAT .
Out: 1.63

In: Name the recorded PBM binding z-score for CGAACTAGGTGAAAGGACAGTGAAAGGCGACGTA .
Out: 1.93

In: Name the recorded PBM binding z-score for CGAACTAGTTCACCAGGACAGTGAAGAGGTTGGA .
Out: -0.235
